Study Target: 5-HT uptake, rat brain synaptosomes (Rattus norvegicus (Rat), UniProt P31652)
Test Protocol: 5-HT uptake inhibition in rat brain synaptosomes
Type: biochemical
Measurement Setup: [3H]5-HT, rat brain synaptosomes, 15 min at 37° C.; read-out: Uptake IC50 (nM) 5-HT
Quantity Name: log10(IC50) (log10 of the value in nM)
Please be aware that the numbers have been log10-transformed from IC50 in nM.

Compound	Study Target	log10(IC50)
CN1CC2C[C@@]2(c2ccc(Cl)c(F)c2)C1 (stereo partly shown)	5-HT uptake, rat brain synaptosomes (Rattus norvegicus (Rat), UniProt P31652)	2.62
CN1CC2CC2(c2ccc(Cl)cc2Cl)C1 (stereo not shown)	5-HT uptake, rat brain synaptosomes (Rattus norvegicus (Rat), UniProt P31652)	2.72
CCCCN1CC2C[C@]2(c2ccc(Cl)c(Cl)c2)C1 (stereo partly shown)	5-HT uptake, rat brain synaptosomes (Rattus norvegicus (Rat), UniProt P31652)	3.41

Hey, can you go through the list below and give me log10(IC50) for every item?
1. Fc1cc([C@]23CNCC2C3)ccc1Cl (stereo partly shown)
2. CN1CC2C[C@]2(c2ccc(Cl)c(Cl)c2)C1 (stereo partly shown)
3. Cc1ccc([C@@]23CC2CN(C)C3)cc1F (stereo partly shown)
4. CN1CC2C[C@]2(c2ccc(F)c(Cl)c2)C1 (stereo partly shown)
5. CN1CC2CC2(c2ccc(F)c(Cl)c2)C1 (stereo not shown)
6. CN1CC2C[C@@]2(c2ccc(Cl)c(Cl)c2)C1 (stereo partly shown)
7. Fc1ccc([C@]23CNCC2C3)cc1Cl (stereo partly shown)

[2.40, 1.94, 2.92, 2.92, 1.90, 1.36, 2.27]

----------
Study Target: SERT (Homo sapiens (Human), UniProt P31645)
Test Protocol: SERT binding
Measurement Setup: read-out: Binding SERT Ki
pKi: −log10 of the molar value.
Label label 0 if pKi falls below 6; label label 1 in every other case.

Compound	Class Label
CCCN1CC2C[C@]2(c2ccc(Cl)c(Cl)c2)C1 (stereo partly shown)	label 0

Is pKi at least 6? Consider Fc1ccc(C23CNCC2C3)cc1Cl (stereo not shown)
label 1

Is pKi at least 6? Consider CN1CC2CC2(c2ccc(F)c(F)c2)C1 (stereo not shown)
label 0

Is pKi at least 6? Consider CN1CC2C[C@]2(c2ccc(Cl)c(Cl)c2)C1 (stereo partly shown)
label 1

Is pKi at least 6? Consider CCCN1CC2C[C@@]2(c2ccc(Cl)c(Cl)c2)C1 (stereo partly shown)
label 0

Is pKi at least 6? Consider Clc1ccc(C23CC2CN(C2CC2)C3)cc1Cl (stereo not shown)
label 0

Is pKi at least 6? Consider Cc1cc(C23CC2CN(C)C3)ccc1F (stereo not shown)
label 1

----------
Study Target: NET (Homo sapiens (Human))
Test Protocol: NET binding
Measurement Setup: read-out: Binding NET Ki
Quantity Name: Ki (nM)
Answers are plain numbers, in nM.

# count of solved cases: 3
Compound	Study Target	Ki / nM
CN1CC2CC2(c2ccc(F)c(F)c2)C1 (stereo not shown)	NET (Homo sapiens (Human))	990
CN1CC2C[C@@]2(c2ccc(Cl)c(Cl)c2)C1 (stereo partly shown)	NET (Homo sapiens (Human))	81
CCCCN1CC2C[C@]2(c2ccc(Cl)c(Cl)c2)C1 (stereo partly shown)	NET (Homo sapiens (Human))	1100

Hey, can you go through the list below and give me Ki for every item?
1. CN1CC2CC2(c2ccc(F)c(Cl)c2)C1 (stereo not shown)
2. CC(C)N1CC2C[C@]2(c2ccc(Cl)c(Cl)c2)C1 (stereo partly shown)
3. CC(C)N1CC2CC2(c2ccc(Cl)c(Cl)c2)C1 (stereo not shown)
4. Cc1ccc(C23CC2CN(C)C3)cc1F (stereo not shown)
5. CN1CC2CC2(c2ccc(Cl)cc2Cl)C1 (stereo not shown)
6. CCN1CC2C[C@]2(c2ccc(Cl)c(Cl)c2)C1 (stereo partly shown)
7. Cc1cc(C23CC2CN(C)C3)ccc1F (stereo not shown)

[350, 5150, 827, 260, 6200, 585, 920]

Hey, can you go through the list below and give me Ki for every item?
1. CCCN1CC2CC2(c2ccc(Cl)c(Cl)c2)C1 (stereo not shown)
2. CCCN1CC2C[C@]2(c2ccc(Cl)c(Cl)c2)C1 (stereo partly shown)

1. 1830
2. 1070

What the record says about CN1CC2C[C@]2(c2ccc(Cl)c(Cl)c2)C1 (stereo partly shown) : Ki is 490

----------
Study Target: dopamine (DA) uptake, rat striatum synaptosomes (Rattus norvegicus (Rat))
Sequence (P23977 whole entry): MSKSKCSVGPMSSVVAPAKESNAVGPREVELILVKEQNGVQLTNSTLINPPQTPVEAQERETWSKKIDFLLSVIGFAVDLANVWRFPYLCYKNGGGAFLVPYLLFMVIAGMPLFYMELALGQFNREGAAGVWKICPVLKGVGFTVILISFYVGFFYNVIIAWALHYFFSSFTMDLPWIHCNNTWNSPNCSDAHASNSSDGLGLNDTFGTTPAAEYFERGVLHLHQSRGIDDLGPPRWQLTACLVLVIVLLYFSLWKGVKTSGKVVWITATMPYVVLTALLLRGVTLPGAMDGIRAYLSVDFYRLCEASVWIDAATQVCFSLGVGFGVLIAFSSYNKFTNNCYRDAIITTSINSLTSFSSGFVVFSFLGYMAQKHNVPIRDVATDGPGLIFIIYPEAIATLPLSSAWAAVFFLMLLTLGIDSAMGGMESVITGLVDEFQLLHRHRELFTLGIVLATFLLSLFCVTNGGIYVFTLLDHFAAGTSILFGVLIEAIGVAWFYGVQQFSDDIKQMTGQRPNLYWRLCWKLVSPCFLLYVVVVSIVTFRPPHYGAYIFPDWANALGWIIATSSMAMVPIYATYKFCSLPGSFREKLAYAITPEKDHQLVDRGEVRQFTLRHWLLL
Test Protocol: Dopamine (DA) uptake inhibition in rat striatum synaptosomes
Assay type: biochemical
Quantity Name: pIC50
Numbers only, as −log10 of the molar value.

# count of solved cases: 3
Molecule	pIC50
CCOc1ccc2cc(C34CNCC3C4)ccc2c1 (stereo not drawn)	6.25
Cc1ccc([C@@]23CC2CN(C)C3)cc1F (stereo partly drawn)	6.42
CCN1CC2C[C@]2(c2ccc(Cl)c(Cl)c2)C1 (stereo partly drawn)	6.72

Hey, can you go through the list below and give me pIC50 for every item?
1. Cc1ccc([C@]23CNCC2C3)cc1F (stereo partly drawn)
2. Cc1ccc(C23CNCC2C3)cc1F (stereo not drawn)
3. c1ccc2cc([C@]34CNCC3C4)ccc2c1 (stereo partly drawn)
4. CN1CC2C[C@@]2(c2ccc(Cl)c(Cl)c2)C1 (stereo partly drawn)
5. CCCCN1CC2C[C@]2(c2ccc(Cl)c(Cl)c2)C1 (stereo partly drawn)
6. CCCCN1CC2CC2(c2ccc(Cl)c(Cl)c2)C1 (stereo not drawn)

1. 6.40
2. 6.34
3. 7.31
4. 6.92
5. 5.92
6. 7.11

----------
Assignment: determine reported IC50 for the given compounds.
Study Target: 5-HT uptake, rat brain synaptosomes (Rattus norvegicus (Rat))
Test Protocol: 5-HT uptake inhibition in rat brain synaptosomes
Assay type: biochemical
Measurement Setup: [3H]5-HT, rat brain synaptosomes, 15 min at 37° C.; read-out: Uptake IC50 (nM) 5-HT
Numbers only, in nM.

# count of solved cases: 9
Compound	Study Target	Quantity Name	Measured Value
CN1CC2CC2(c2ccc3ccccc3c2)C1 (centres unmarked)	5-HT uptake, rat brain synaptosomes (Rattus norvegicus (Rat))	IC50	31
CCCN1CC2C[C@@]2(c2ccc(Cl)c(Cl)c2)C1 (some centres unmarked)	5-HT uptake, rat brain synaptosomes (Rattus norvegicus (Rat))	IC50	590
Clc1ccc(C23CC2CN(C2CC2)C3)cc1Cl (centres unmarked)	5-HT uptake, rat brain synaptosomes (Rattus norvegicus (Rat))	IC50	2600
CC(C)N1CC2C[C@]2(c2ccc(Cl)c(Cl)c2)C1 (some centres unmarked)	5-HT uptake, rat brain synaptosomes (Rattus norvegicus (Rat))	IC50	100
Cc1ccc([C@]23CNCC2C3)cc1F (some centres unmarked)	5-HT uptake, rat brain synaptosomes (Rattus norvegicus (Rat))	IC50	133
COc1ccc2cc(C34CNCC3C4)ccc2c1 (centres unmarked)	5-HT uptake, rat brain synaptosomes (Rattus norvegicus (Rat))	IC50	82
CCOc1ccc2cc(C34CNCC3C4)ccc2c1 (centres unmarked)	5-HT uptake, rat brain synaptosomes (Rattus norvegicus (Rat))	IC50	700
Cc1ccc(C23CC2CN(C)C3)cc1F (centres unmarked)	5-HT uptake, rat brain synaptosomes (Rattus norvegicus (Rat))	IC50	110
CN1CC2C[C@]2(c2ccc3ccccc3c2)C1 (some centres unmarked)	5-HT uptake, rat brain synaptosomes (Rattus norvegicus (Rat))	IC50	117

Now look at this entry.
What the record says about CC(C)N1CC2C[C@@]2(c2ccc(Cl)c(Cl)c2)C1 (some centres unmarked) : IC50 is 170

----------
Study Target: SERT (Homo sapiens (Human), UniProt P31645)
Test Protocol: SERT binding
Measurement Setup: read-out: Binding SERT Ki
Assignment: determine reported pKi for the given compounds.
One number for each entry, as −log10 of the molar value.

Compound	pKi
CCN1CC2C[C@@]2(c2ccc(Cl)c(Cl)c2)C1 (stereo partly drawn)	7.06
CN1CC2CC2(c2ccc3ccccc3c2)C1 (stereo not drawn)	8.22
CCN1CC2C[C@]2(c2ccc(Cl)c(Cl)c2)C1 (stereo partly drawn)	6.95
CCCCN1CC2C[C@]2(c2ccc(Cl)c(Cl)c2)C1 (stereo partly drawn)	5.05
CCCCN1CC2C[C@@]2(c2ccc(Cl)c(Cl)c2)C1 (stereo partly drawn)	5.12

Hey, can you go through the list below and give me pKi for every item?
1. CN1CC2C[C@@]2(c2ccc(Cl)c(Cl)c2)C1 (stereo partly drawn)
2. CN1CC2CC2(c2ccc([N+](=O)[O-])c(Cl)c2)C1 (stereo not drawn)
3. CC(C)N1CC2C[C@]2(c2ccc(Cl)c(Cl)c2)C1 (stereo partly drawn)

7.80
6.15
6.88

Hey, can you go through the list below and give me pKi for every item?
1. CCCN1CC2CC2(c2ccc(Cl)c(Cl)c2)C1 (stereo not drawn)
2. CCCCN1CC2CC2(c2ccc(Cl)c(Cl)c2)C1 (stereo not drawn)

[5.78, 5.21]

Hey, can you go through the list below and give me pKi for every item?
1. CC(C)N1CC2CC2(c2ccc(Cl)c(Cl)c2)C1 (stereo not drawn)
2. CC(C)N1CC2C[C@@]2(c2ccc(Cl)c(Cl)c2)C1 (stereo partly drawn)

1: 6.91; 2: 6.48
